System: L1210 leukemia ip in BDF1 mice, survival T/C
PROTOCOL DETAILS: NCI In Vivo Anticancer Drug Screen. Data for tumor model L1210 Leukemia (intraperitoneal) in B6D2F1 (BDF1) mice
PROTOCOL CONDITIONS: endpoint: mean survival time; dose: 200.0 mg/kg/injection; schedule: Q01DX009 (ip); vehicle: Klucel (hydroxypropylcellulose) (HPC); higher = longer survival
Experimental: The antitumor activity of compounds was measured in mice bearing transplantable tumors. Survival or tumor size were measured and the results are expressed as the measurement made in the treated group (T) divided by the measurement made in the vehicle treated control group (C). The tumor model used in this assay is L1210 Leukemia (intraperitoneal) in B6D2F1 (BDF1) mice
Toxic doses and inconclusive results are not listed.
PARAMETER: T/C

1) CC(C)(C)NC(=O)CCC1C(NC(=O)C(C)(C)C)C2(Cl)C(Cl)=C(Cl)C1(Cl)C2(Cl)Cl (centres undefined) : 90 % of control
2) C=CCC(C#N)(CCN(C)C)c1cccc2ccccc12 (centres undefined) : 111 % of control
3) NC(=S)SCCC(=O)O : 100 % of control
4) N#Cc1ccc(OCCCCOc2ccc([N+](=O)[O-])cc2Cl)cc1 : 95 % of control

----------
System: L1210 leukemia ip in BDF1 mice, survival T/C
PROTOCOL DETAILS: NCI In Vivo Anticancer Drug Screen. Data for tumor model L1210 Leukemia (intraperitoneal) in B6D2F1 (BDF1) mice
PROTOCOL CONDITIONS: endpoint: mean survival time; dose: 25.0 mg/kg/injection; schedule: Q04DX002 (ip); vehicle: saline; higher = longer survival
Procedure: The antitumor activity of compounds was measured in mice bearing transplantable tumors. Survival or tumor size were measured and the results are expressed as the measurement made in the treated group (T) divided by the measurement made in the vehicle treated control group (C). The tumor model used in this assay is L1210 Leukemia (intraperitoneal) in B6D2F1 (BDF1) mice
Toxic doses and inconclusive results are not listed.
Documented T/C across a set of compounds
PARAMETER: T/C

1) C[S+](C)C12CC3CC(CC(C3)C1)C2 : 102 % of control
2) CCCCOCc1c(CO)cnc(C)c1O : 99 % of control
3) CC(C)(C)C1CCC(=O)CC1 : 106 % of control

----------
Documented T/C across a set of molecules
Tested on: L1210 leukemia ip in BDF1 mice, survival T/C
PROTOCOL DETAILS: NCI In Vivo Anticancer Drug Screen. Data for tumor model L1210 Leukemia (intraperitoneal) in B6D2F1 (BDF1) mice
PROTOCOL CONDITIONS: endpoint: mean survival time; dose: 12.5 mg/kg/injection; schedule: Q01DX009 (ip); vehicle: saline with Tween-80; higher = longer survival
Toxic doses and inconclusive results are not listed.
PARAMETER: T/C

1. CCN1CC2c3cc(OC)c(OC)cc3CC(c3ccccc3)C2C1 (stereo not given) : 98 % of control
2. O=C(/C(=C\Cl)CBr)c1ccccc1 : 88 % of control
3. C[N+](C)(Cc1ccccc1)CC(O)COc1ccccc1 (stereo not given) : 100 % of control
4. C=Cc1c(C)c(O)cc2c1-c1ccc(O)c(C)c1CC2 : 102 % of control
5. CCCCCCCCCCCC(C)NCc1ccccc1 (stereo not given) : 89 % of control
